- System Under Test: Non-receptor tyrosine-protein kinase TYK2 (Homo sapiens)
- Sequence (P29597 whole entry): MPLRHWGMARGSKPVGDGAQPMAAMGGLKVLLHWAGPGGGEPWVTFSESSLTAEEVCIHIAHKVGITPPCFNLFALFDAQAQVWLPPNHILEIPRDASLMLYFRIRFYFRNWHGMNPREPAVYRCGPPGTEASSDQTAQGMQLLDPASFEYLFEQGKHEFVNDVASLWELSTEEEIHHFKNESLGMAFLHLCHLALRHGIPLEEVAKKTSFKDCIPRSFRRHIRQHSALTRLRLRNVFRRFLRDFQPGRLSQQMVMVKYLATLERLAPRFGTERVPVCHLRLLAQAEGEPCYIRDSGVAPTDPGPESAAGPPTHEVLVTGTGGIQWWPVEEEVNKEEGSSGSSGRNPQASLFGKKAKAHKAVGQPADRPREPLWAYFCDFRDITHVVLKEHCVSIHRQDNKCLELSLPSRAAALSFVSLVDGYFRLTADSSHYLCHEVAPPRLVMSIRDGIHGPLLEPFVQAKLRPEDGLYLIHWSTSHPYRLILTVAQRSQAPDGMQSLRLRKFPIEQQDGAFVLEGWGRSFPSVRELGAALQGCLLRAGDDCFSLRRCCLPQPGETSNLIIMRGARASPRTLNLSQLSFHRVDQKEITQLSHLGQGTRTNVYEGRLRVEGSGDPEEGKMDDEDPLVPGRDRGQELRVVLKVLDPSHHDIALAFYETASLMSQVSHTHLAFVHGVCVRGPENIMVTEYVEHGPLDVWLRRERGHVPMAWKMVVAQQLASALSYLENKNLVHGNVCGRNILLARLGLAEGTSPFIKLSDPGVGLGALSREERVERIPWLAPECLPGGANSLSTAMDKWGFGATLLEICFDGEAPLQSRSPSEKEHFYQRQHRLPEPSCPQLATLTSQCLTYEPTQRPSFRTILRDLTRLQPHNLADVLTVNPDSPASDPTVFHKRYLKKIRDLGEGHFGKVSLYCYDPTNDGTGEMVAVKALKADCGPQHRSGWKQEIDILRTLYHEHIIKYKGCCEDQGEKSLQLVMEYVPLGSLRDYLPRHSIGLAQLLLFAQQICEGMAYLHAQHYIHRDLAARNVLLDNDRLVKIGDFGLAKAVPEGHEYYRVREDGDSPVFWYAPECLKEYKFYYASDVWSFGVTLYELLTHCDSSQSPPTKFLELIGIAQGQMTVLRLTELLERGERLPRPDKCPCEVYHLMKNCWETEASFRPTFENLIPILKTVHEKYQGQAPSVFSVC
Measurement Label: IC50

**Q:** Please look up its IC50: CC1CN(c2ccncc2NC(=O)c2ccnn3cc(-c4ccccc4)nc23)CCO1 (racemic)
**A:** > 2 µM

* * *

- Protocol: Unbound fraction in triple transgenic C57BL6 alzheimer disease model mouse brain homogenate at 30 mg/kg, po measured after 5 hrs
- Assay type: ADME, organism-based
Measurement Label: fraction unbound at 5 h
Note: the reply should be a number with no unit written.

**Q:** Fill blank: measured fraction unbound at 5 h of the molecule CC1CN(c2ccncc2NC(=O)c2ccnn3cc(-c4ccccc4)nc23)CCO1 (racemic) is ____.
**A:** 0.009

* * *

- System Under Test: Insulin-like growth factor 1 receptor (Homo sapiens, UniProt P08069)
- Sequence (P08069 31-736 limits assumed): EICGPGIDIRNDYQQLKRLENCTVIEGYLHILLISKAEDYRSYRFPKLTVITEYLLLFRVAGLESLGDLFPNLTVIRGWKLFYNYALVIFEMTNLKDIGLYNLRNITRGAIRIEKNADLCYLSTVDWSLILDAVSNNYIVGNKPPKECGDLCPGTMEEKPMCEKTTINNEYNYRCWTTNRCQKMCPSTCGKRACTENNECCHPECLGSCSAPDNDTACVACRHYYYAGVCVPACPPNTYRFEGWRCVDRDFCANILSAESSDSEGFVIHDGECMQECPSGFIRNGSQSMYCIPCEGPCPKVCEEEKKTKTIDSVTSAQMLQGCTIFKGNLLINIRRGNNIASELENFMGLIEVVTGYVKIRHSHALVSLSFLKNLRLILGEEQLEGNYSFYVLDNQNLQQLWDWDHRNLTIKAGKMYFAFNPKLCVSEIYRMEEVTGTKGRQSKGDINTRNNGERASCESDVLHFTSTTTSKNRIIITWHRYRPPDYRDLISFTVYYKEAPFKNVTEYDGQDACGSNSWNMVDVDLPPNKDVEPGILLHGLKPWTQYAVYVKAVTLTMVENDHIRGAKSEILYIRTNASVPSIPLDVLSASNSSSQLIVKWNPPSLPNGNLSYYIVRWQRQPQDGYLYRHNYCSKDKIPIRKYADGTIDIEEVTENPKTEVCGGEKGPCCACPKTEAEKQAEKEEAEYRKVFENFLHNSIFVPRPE
- Sequence (P08069 741-1367 limits assumed): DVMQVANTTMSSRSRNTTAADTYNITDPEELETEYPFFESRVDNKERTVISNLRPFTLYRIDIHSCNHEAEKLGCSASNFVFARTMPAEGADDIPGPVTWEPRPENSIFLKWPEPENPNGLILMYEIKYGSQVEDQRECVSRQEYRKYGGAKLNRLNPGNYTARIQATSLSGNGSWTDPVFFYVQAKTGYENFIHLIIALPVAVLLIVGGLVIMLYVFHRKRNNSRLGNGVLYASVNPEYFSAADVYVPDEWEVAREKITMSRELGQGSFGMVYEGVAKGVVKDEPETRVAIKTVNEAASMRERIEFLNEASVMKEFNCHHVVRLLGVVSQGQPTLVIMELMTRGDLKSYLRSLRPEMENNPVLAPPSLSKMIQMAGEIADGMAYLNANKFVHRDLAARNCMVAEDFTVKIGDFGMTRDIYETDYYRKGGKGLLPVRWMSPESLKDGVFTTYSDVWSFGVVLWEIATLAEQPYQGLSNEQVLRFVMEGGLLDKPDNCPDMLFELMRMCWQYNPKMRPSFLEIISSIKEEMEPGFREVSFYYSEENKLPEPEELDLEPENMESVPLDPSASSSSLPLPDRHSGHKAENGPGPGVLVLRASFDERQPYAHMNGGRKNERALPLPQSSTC
Measurement Label: IC50

**Q:** Item under review: CC1CN(c2ccncc2NC(=O)c2ccnn3cc(-c4ccccc4)nc23)CCO1 (racemic) . Reported IC50?
**A:** > 50 µM

* * *

- System Under Test: AP2-associated protein kinase 1 (Homo sapiens, UniProt Q2M2I8)
- Sequence (Q2M2I8 whole entry): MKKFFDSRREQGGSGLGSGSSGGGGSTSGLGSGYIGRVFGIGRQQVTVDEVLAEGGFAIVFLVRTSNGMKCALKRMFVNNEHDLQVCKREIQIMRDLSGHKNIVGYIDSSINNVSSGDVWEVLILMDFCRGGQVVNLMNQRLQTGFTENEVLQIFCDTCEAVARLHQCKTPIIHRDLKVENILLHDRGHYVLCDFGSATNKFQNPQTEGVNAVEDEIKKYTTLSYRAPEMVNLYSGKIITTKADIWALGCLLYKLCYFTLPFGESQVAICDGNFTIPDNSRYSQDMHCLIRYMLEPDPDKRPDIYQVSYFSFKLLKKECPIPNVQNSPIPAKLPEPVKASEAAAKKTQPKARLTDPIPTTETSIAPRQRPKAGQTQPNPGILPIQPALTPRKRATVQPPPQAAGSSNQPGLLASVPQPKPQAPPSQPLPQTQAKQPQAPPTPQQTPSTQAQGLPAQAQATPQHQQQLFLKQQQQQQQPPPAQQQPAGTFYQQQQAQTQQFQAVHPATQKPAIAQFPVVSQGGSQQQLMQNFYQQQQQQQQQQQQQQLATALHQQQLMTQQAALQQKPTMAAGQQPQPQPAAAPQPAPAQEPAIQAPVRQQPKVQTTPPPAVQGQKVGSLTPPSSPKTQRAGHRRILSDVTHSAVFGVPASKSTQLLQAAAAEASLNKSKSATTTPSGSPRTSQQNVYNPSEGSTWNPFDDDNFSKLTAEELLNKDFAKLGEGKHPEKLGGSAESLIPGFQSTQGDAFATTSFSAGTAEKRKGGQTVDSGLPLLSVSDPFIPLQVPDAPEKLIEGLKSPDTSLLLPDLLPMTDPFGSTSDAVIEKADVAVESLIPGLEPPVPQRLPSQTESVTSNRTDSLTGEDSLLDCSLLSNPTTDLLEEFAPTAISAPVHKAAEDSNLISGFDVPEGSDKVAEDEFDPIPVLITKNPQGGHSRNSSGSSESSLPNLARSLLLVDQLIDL
Measurement Label: pIC50
Reminder that pIC50 means the negative base-10 logarithm of the concentration expressed in mol/L.

**Q:** Returns the measured pIC50 for the input molecule. Input: CC1CN(c2ccncc2NC(=O)c2ccnn3cc(-c4ccccc4)nc23)CCO1 (racemic)
**A:** 6.70

* * *

- Protocol: Metabolic stability in human liver microsomes assessed as parent compound remaining at 0.5 uM incubated for 10 mins by LC-MS/MS analysis
- Type: ADME, Microsome
- Protocol Conditions: read-out: Stability
The label 1 is reserved for remaining at 10 min, 0.5 µM strictly under 80%; 0 covers values equal to or above it.

**Q:** Here's an entry: "O=C(Nc1cnccc1N1CCC(F)(F)CC1)c1ccnn2cc(-c3ccccc3)nc12" . Is its remaining at 10 min, 0.5 µM below 80%?
**A:** 1

**Q:** Now this one: CC1CN(c2ccncc2NC(=O)c2ccnn3cc(-c4ccccc4)nc23)CCO1 (racemic)
**A:** 1

**Q:** What do you have for CC1CN(c2ccncc2NC(=O)c2ccnn3cc(C4CC4)nc23)CCO1 (stereo unspecified) ?
**A:** 1

**Q:** Note, next up: "O=C(Nc1cnccc1-c1ccc(F)cc1)c1ccnn2cc(-c3ccccc3)nc12"
**A:** 0

**Q:** Now consider "O=C(Nc1cnccc1N1CCOCC1)c1ccnn2cc(-c3ccccc3)nc12" and answer again.
**A:** 1

* * *

- Protocol: Permeability of compound at pH 5.5 incubated for 4 hrs by PAMPA assay
- Type: ADME
- Protocol Conditions: read-out: permeability
Use 1 (yes) when the recorded Papp at 4 h is no lower than 60 ×10⁻⁶ cm/s; use 0 (no) when it is lower.

**Q:** Reported Papp at 4 h at or above 60 ×10⁻⁶ cm/s? CC1CN(c2ccncc2NC(=O)c2ccnn3cc(-c4ccccc4)nc23)CCO1 (racemic)
**A:** 1 (yes)

**Q:** Next record, please: "O=C(Nc1cnccc1N1CCOCC1)c1ccnn2cc(-c3ccccc3)nc12"
**A:** 0 (no)

**Q:** Ok, now CC1CN(c2ccncc2NC(=O)c2ccnn3cc(C4CC4)nc23)CCO1 (stereo unspecified)
**A:** 1 (yes)

**Q:** Repeat for the following molecule: "O=C(Nc1cnccc1-c1ccc(F)cc1)c1ccnn2cc(-c3ccccc3)nc12"
**A:** 1 (yes)

**Q:** Repeat for the following molecule: "O=C(Nc1cnccc1-c1ccccc1)c1ccnn2cc(-c3ccccc3)nc12"
**A:** 0 (no)

**Q:** Then "O=C(Nc1cnccc1N1CCC(F)(F)CC1)c1ccnn2cc(-c3ccccc3)nc12" ?
**A:** 0 (no)
